Here the recorded melting point is given for each entry.

Worked set:
{"compound": "COc1cccc(Oc2ccc(C(=O)N(C(C)C)C3CCCCC3)cc2)c1", "endpointValue": "101 °C"}
{"compound": "CC(C)n1nc(-c2c(NCc3ccccn3)nc(N)nc2-c2ccc(F)cc2)ccc1=O", "endpointValue": "210 to 212 °C"}

Problem: Which measured melting point value corresponds to `CCOc1cc(C(F)(F)F)cc(Cl)c1-n1nc(C#N)c(SC(F)(F)F)c1N` ?
Result: 166 °C

Problem: Which measured melting point value corresponds to `N#Cc1cc2nc(O)c(O)nc2c2[nH]nnc12` ?
Result: > 300 °C

Problem: Which measured melting point value corresponds to CC(NC(=O)Cc1cc(F)cc(F)c1)C(=O)NC1(F)NC(=O)Cc2ccccc21 (stereo not given) ?
Result: 195 to 200 °C

Problem: Which measured melting point value corresponds to CC(=O)OCC1CC(Nc2cc(Cl)c(Cl)cc2[N+](=O)[O-])C(OC(C)=O)C1OC(C)=O (stereo not given) ?
Result: 128 to 130 °C

Problem: Which measured melting point value corresponds to `COc1ccc(N2CCN(Cc3cnc(N)nc3N)CC2)cc1` ?
Result: 239 to 241 °C

Ref: a melting point compilation (Tetko et al.; mined from patent text by program, amines drawn as free bases though some values may be those of a salt)
